tested on: 953936-095-R-J2-PDC spheroids with HUVEC/MSC, viability; assay: Anticancer human tumor 953936-095-R-J2-PDC patient-derived cervical squamous cell carcinoma cell line growth inhibition [PI3K]; details: curve of first compound; second compound 1 µM
reported.property: IC50

| compound | IC50 |
| --- | --- |
| Cn1ncnc1[C@H]1c2n[nH]c(=O)c3cc(F)cc(c23)N[C@@H]1c1ccc(F)cc1 + CC(Nc1ccc2c(c1)OCCn1cc(N3C(=O)OCC3C(F)F)nc1-2)C(N)=O | < 0.000316 µM |
| Cn1ncnc1[C@H]1c2n[nH]c(=O)c3cc(F)cc(c23)N[C@@H]1c1ccc(F)cc1 + CC(Nc1ncnc2nc[nH]c12)c1cc2cccc(Cl)c2c(=O)n1-c1ccccc1 | > 0.1 µM |
| C#Cc1c(F)ccc2cc(O)cc(-c3ncc4c(N5CC6CCC(C5)N6)nc(OCC56CCCN5CC(F)C6)nc4c3F)c12 (stereo unspecified) + CC(Nc1ncnc2nc[nH]c12)c1cc2cccc(Cl)c2c(=O)n1-c1ccccc1 | > 10 µM |

Challenge: Would you mind telling me what IC50 value was observed for CC(C)NCC(C(=O)N1CCN(c2ncnc3c2C(C)CC3O)CC1)c1ccc(Cl)cc1 (stereo unspecified) + CC(Nc1ncnc2nc[nH]c12)c1cc2cccc(Cl)c2c(=O)n1-c1ccccc1 ?
Response given: 1.05 µM

Challenge: Would you mind telling me what IC50 value was observed for Cn1nccc1Nc1nccc(-c2ccn(C(CO)c3ccc(Cl)c(F)c3)c(=O)c2)n1 (stereo unspecified) + Cc1nc(NC(=O)N2CCCC2C(N)=O)sc1-c1ccnc(C(C)(C)C(F)(F)F)c1 ?
Response given: < 0.0316 µM

Challenge: Would you mind telling me what IC50 value was observed for Cn1cnc2c(F)c(Nc3ccc(Br)cc3Cl)c(C(=O)NOCCO)cc21 + Cc1nc(NC(=O)N2CCCC2C(N)=O)sc1-c1ccnc(C(C)(C)C(F)(F)F)c1 ?
Response given: < 0.00949 µM

###

tested on: 953936-095-R-J2-PDC spheroids with HUVEC/MSC, viability; assay: Anticancer human tumor 953936-095-R-J2-PDC cell line growth inhibition [PI3K]; conditions: second compound 0.1 µM; first compound 0.0316 µM; stronger effect = lower value;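 further: spheroids exposed to compounds for seven days before read-out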
Entries and their measured viability, T/C follow.
Express it in %; write the number only.

Worked cases, viability, T/C given:
| compound | experimental.value |
| --- | --- |
| CCCS(=O)(=O)Nc1ccc(F)c(C(=O)c2c[nH]c3ncc(-c4ccc(Cl)cc4)cc23)c1F + CC(Nc1ccc2c(c1)OCCn1cc(N3C(=O)OCC3C(F)F)nc1-2)C(N)=O | 56.3 |
| CC(C)NCC(C(=O)N1CCN(c2ncnc3c2C(C)CC3O)CC1)c1ccc(Cl)cc1 (stereo unspecified) + CC(Nc1ncnc2nc[nH]c12)c1cc2cccc(Cl)c2c(=O)n1-c1ccccc1 | 100 |
| CC(=O)c1c(C)c2cnc(Nc3ccc(N4CCNCC4)cn3)nc2n(C2CCCC2)c1=O + CC(Nc1ncnc2nc[nH]c12)c1cc2cccc(Cl)c2c(=O)n1-c1ccccc1 | 99.8 |

Challenge: Would you mind telling me what viability, T/C value was observed for CC(C)n1nc(-c2ccc3oc(N)nc3c2)c2c(N)ncnc21 + CC(Nc1ncnc2nc[nH]c12)c1cc2cccc(Cl)c2c(=O)n1-c1ccccc1 ?
Response given: 46.3

Challenge: Would you mind telling me what viability, T/C value was observed for C#Cc1c(F)ccc2cc(O)cc(-c3ncc4c(N5CC6CCC(C5)N6)nc(OCC56CCCN5CC(F)C6)nc4c3F)c12 (stereo unspecified) + COc1c(OCCCN2CCOCC2)ccc2c3n(c(=NC(=O)c4cnc(N)nc4)nc12)CCN3 ?
Response given: 18.3

Challenge: Would you mind telling me what viability, T/C value was observed for CC(Cn1ccc(-c2ccc(C#N)c(Cl)c2)n1)NC(=O)c1cc(C(C)O)[nH]n1 (stereo unspecified) + CC(Nc1ccc2c(c1)OCCn1cc(N3C(=O)OCC3C(F)F)nc1-2)C(N)=O ?
Response given: 58.1

Challenge: Would you mind telling me what viability, T/C value was observed for CCCS(=O)(=O)Nc1ccc(F)c(C(=O)c2c[nH]c3ncc(-c4ccc(Cl)cc4)cc23)c1F + COc1c(OCCCN2CCOCC2)ccc2c3n(c(=NC(=O)c4cnc(N)nc4)nc12)CCN3 ?
Response given: 18.3

Challenge: Would you mind telling me what viability, T/C value was observed for CCCS(=O)(=O)Nc1ccc(F)c(C(=O)c2c[nH]c3ncc(-c4ccc(Cl)cc4)cc23)c1F + CC(Nc1ncnc2nc[nH]c12)c1cc2cccc(Cl)c2c(=O)n1-c1ccccc1 ?
Response given: 102

Challenge: Would you mind telling me what viability, T/C value was observed for CC(Cn1ccc(-c2ccc(C#N)c(Cl)c2)n1)NC(=O)c1cc(C(C)O)[nH]n1 (stereo unspecified) + COc1c(OCCCN2CCOCC2)ccc2c3n(c(=NC(=O)c4cnc(N)nc4)nc12)CCN3 ?
Response given: 19.4

Challenge: Would you mind telling me what viability, T/C value was observed for CC1(C)CCC(Nc2ncc(C(F)(F)F)c(-c3c[nH]c4c(P(C)(C)=O)c(C#N)ccc34)n2)CN1 (stereo unspecified) + Cc1nc(NC(=O)N2CCCC2C(N)=O)sc1-c1ccnc(C(C)(C)C(F)(F)F)c1 ?
Response given: 45.9

Challenge: Would you mind telling me what viability, T/C value was observed for C[C@@H](NC(=O)c1ncnc(N)c1Cl)c1ncc(C(=O)Nc2cc(C(F)(F)F)c(Cl)cn2)s1 + CC(Nc1ncnc2nc[nH]c12)c1cc2cccc(Cl)c2c(=O)n1-c1ccccc1 ?
Response given: 113

Challenge: Would you mind telling me what viability, T/C value was observed for Cn1nccc1Nc1nccc(-c2ccn(C(CO)c3ccc(Cl)c(F)c3)c(=O)c2)n1 (stereo unspecified) + Cc1nc(NC(=O)N2CCCC2C(N)=O)sc1-c1ccnc(C(C)(C)C(F)(F)F)c1 ?
Response given: 77.1
